Target sequence: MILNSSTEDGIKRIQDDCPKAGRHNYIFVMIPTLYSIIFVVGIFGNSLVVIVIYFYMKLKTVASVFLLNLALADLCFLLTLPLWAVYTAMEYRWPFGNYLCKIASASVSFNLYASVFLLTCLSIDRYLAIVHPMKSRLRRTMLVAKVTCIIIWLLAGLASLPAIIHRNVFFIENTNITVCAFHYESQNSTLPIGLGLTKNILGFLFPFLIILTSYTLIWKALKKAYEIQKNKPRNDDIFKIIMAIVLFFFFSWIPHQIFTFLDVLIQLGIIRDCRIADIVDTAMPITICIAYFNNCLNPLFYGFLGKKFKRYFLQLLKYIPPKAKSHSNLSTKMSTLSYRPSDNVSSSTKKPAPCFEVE
Observation Type: AC50

Worked cases, answers included:
{"Compound": "CC(C(O)c1ccc(O)cc1)N1CCC(Cc2ccccc2)CC1 (centres undefined) [IFENPRODIL]", "AC50": "> 30 µM"}
{"Compound": "CC(=O)OCC(=O)[C@@]12OC3(CCCC3)O[C@@H]1C[C@H]1[C@@H]3CCC4=CC(=O)C=C[C@]4(C)[C@@]3(F)[C@@H](O)C[C@@]12C [AMCINONIDE]", "AC50": "> 10 µM"}
{"Compound": "OCCN1CCN(CCCN2c3ccccc3C=Cc3ccccc32)CC1 [OPIPRAMOL]", "AC50": "> 30 µM"}

Shift focus to the following entry.
For the compound shown here, CC(C)c1c(C(=O)Nc2ccccc2)c(-c2ccccc2)c(-c2ccc(F)cc2)n1CC[C@@H](O)C[C@@H](O)CC(=O)O [ATORVASTATIN] , give the reported AC50. > 30 µM

###

Data export: AC50 values recorded with 5-hydroxytryptamine receptor 1A (Homo sapiens).
Sequence (P08908 whole entry): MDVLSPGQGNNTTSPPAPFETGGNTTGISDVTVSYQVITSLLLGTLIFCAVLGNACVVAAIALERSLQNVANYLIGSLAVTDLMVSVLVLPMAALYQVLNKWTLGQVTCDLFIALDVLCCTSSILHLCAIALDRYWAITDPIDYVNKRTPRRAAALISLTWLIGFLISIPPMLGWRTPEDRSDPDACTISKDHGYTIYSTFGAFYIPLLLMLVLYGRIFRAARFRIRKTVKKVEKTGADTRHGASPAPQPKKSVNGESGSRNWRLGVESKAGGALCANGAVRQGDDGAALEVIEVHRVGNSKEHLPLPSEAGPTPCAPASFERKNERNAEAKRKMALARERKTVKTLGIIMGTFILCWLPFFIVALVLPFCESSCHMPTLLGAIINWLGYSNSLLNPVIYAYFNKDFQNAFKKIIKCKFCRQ

Worked cases, answers included:
{"Compound": "C[C@H]1O[C@H](O[C@H]2[C@H](O)[C@@H](O)[C@@H](O[C@H]3[C@H](O)[C@@H](O)C(O)O[C@@H]3CO)O[C@@H]2CO)[C@H](O)[C@@H](O)[C@@H]1N[C@H]1C=C(CO)[C@@H](O)[C@H](O)[C@H]1O (some centres undefined) [ACARBOSE]", "AC50": "> 10 µM"}
{"Compound": "Cc1ccc(-c2nc3ccc(C)cn3c2CC(=O)N(C)C)cc1 [ZOLPIDEM]", "AC50": "> 10 µM"}
{"Compound": "CC(C)NCC(O)COc1ccc(COCCOC(C)C)cc1 (centres undefined) [BISOPROLOL]", "AC50": "> 10 µM"}
{"Compound": "CCCCCCCCOc1ccccc1C(=O)Nc1ccc(C(=O)OCC[N+](C)(CC)CC)cc1 [OTILONIUM BROMIDE]", "AC50": "> 30 µM"}
{"Compound": "CCc1nn(CCCN2CCN(c3cccc(Cl)c3)CC2)c(=O)n1CCOc1ccccc1 [NEFAZODONE]", "AC50": "0.254 µM"}

Kindly give each listed record's AC50.
1. CC(C(=O)O)c1ccc(N2CC=CC2)c(Cl)c1 (centres undefined) [PIRPROFEN]
2. CN(CCOc1ccc(NS(C)(=O)=O)cc1)CCc1ccc(NS(C)(=O)=O)cc1 [DOFETILIDE]
3. O=C(O)c1cccc(-c2noc(-c3ccccc3F)n2)c1
4. NC(CO)C(=O)NNCc1ccc(O)c(O)c1O (centres undefined) [BENSERAZIDE]

["> 10 µM", "> 10 µM", "> 10 µM", "> 10 µM"]
